- test.target: CD80-CD28 interaction (Homo sapiens, UniProt P33681)
- Sequence (P33681 35-242 limits assumed): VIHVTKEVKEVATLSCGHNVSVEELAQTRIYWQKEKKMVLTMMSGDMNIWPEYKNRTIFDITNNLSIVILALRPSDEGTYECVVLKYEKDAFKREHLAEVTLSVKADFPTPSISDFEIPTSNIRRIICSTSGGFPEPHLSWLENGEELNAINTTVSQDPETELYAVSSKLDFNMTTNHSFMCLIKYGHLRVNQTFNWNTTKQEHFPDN
- protocol.details: Homogenous Time Resolved Fluorescence (HTRF) assay, cell free
- Type: binding
- study.conditions: cell-free HTRF, compound concentration series 100 μM-1.7 nM, 4 hours at room temperature; read-out: Activity (EC50 in the HTRF assay)
pEC50: −log10 of the molar value.
metric.name: pEC50

Take a look at these entries with their results.
NC(=O)CNC(=O)Nc1ccc(-n2[nH]c3c(nnc4ccccc43)c2=O)cc1 [Example 157] | 5.00 to 6.00
CCSCCNC(=O)c1ccc(-n2[nH]c3c(nnc4ccccc43)c2=O)cc1 [Example 77] | > 6.00
CCOC(=O)C(C)NC(=O)c1ccc(-n2[nH]c3c(nnc4ccccc43)c2=O)cc1 (stereo not drawn) [Example 66] | 5.00 to 6.00
CC(C)(C)OC(=O)NCCCNC(=O)Nc1ccc(-n2[nH]c3c(nnc4ccccc43)c2=O)cc1 [Example 213] | 5.00 to 6.00
CCOC(=O)CC(C)NC(=O)Nc1ccc(-n2[nH]c3c(nnc4ccccc43)c2=O)cc1 (stereo not drawn) [Example 175] | 5.00 to 6.00

Ask: Requested field: pEC50. Item: O=C(NCCN1CCCCC1)Nc1ccc(-n2[nH]c3c(nnc4ccccc43)c2=O)cc1 [Example 125]
Reply: 5.00 to 6.00

Ask: What about this compound? O=C(Nc1ccc(-n2[nH]c3c(nnc4ccccc43)c2=O)cc1)NC1CCN(Cc2ccccc2)C1 (stereo not drawn) [Example 214]
Reply: > 6.00

Ask: What about this compound? O=C(Nc1ccc(-n2[nH]c3c(nnc4ccccc43)c2=O)cc1)NC1CCOC1=O (stereo not drawn) [Example 195]
Reply: 5.00 to 6.00

Ask: What about this compound? O=C(NCCCN1CCCC1)c1ccc(-n2[nH]c3c(nnc4ccccc43)c2=O)cc1 [Example 79]
Reply: > 6.00
